system: UO-31; assay: Growth inhibition of human UO-31 cells assessed as cell growth inhibition; format: functional
A collection of compounds and their measured GI50
Number in nM, nothing else.

Study these solved cases before continuing.
- SAMPLE SMILES: "CC(C)[C@@]12C[C@@H](OC(=O)[C@H]3CO3)[C@@](C)(O1)[C@@H]1CC[C@@H](C)[C@H]1[C@@H]2OC(=O)/C=C/c1ccccc1"
  GI50 / nM: 204
- SAMPLE SMILES: "CC(C)[C@@]12C[C@@H](OC(=O)[C@@H]3CO3)[C@@](C)(O1)[C@@H]1CC[C@@H](C)[C@H]1[C@@H]2OC(=O)/C=C/c1ccccc1"
  GI50 / nM: 1780
- SAMPLE SMILES: "CC(C)[C@@]12C[C@@H](OS(C)(=O)=O)[C@@](C)(O1)[C@@H]1CC[C@@H](C)[C@H]1[C@@H]2OC(=O)/C=C/c1ccccc1"
  GI50 / nM: 389

Lab note: next compound to report on.
Exercise: Using the record for CC(C)[C@@]12C[C@@H](OC(=O)COS(C)(=O)=O)[C@@](C)(O1)[C@@H]1CC[C@@H](C)[C@H]1[C@@H]2OC(=O)/C=C/c1ccccc1 , report its GI50.
Solution: 1400
